# system-under-test: IDH1 R132C (Homo sapiens, UniProt O75874, R132C)
# Sequence (O75874 whole entry R132C): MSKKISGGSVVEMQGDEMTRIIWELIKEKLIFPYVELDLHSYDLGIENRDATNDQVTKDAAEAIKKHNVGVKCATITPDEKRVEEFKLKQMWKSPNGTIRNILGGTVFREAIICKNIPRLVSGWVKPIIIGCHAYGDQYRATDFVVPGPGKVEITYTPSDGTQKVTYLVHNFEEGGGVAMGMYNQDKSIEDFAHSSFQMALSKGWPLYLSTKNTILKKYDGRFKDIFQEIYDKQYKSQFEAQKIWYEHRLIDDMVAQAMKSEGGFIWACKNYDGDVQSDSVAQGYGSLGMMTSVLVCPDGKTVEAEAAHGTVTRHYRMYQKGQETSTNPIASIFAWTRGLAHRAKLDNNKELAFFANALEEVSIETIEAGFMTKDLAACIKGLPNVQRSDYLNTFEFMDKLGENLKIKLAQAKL
# method-notes: IDH1 R132C enzymatic assay (NADPH depletion coupled to diaphorase/resazurin)
# Format: biochemical
# assay-setup: IDH1 R132C enzymatic inhibition, IC50 class
quantity: IC50

Name the reported IC50 value associated with the molecule CC(C)=Cc1c(C(=O)N2CCNCC2)cc(-c2nc(-c3ccc(Cl)cc3)cs2)c(=O)n1-c1ccccc1
1000 to 5000 nM

Tell me the measured IC50 of CCc1cccc(CC)c1-n1c(C)c(C(=O)N(C)CCN)cc(-c2nc(-c3ccc(Cl)cc3)cs2)c1=O , please.
1000 to 5000 nM

Recorded IC50 for CCc1cccc(CC)c1-n1c(C=C(C)C)c(C(=O)N2CCC(NC)CC2)cc(-c2nc(-c3ccc(Cl)cc3)cs2)c1=O , please?
< 300 nM

What measured IC50 goes with CCc1cccc(CC)c1-n1c(CC(C)C)c(C(=O)N2CCN[C@H](C(=O)OC)C2)cc(-c2nc(-c3ccc(Cl)cc3)cs2)c1=O ?
300 to 1000 nM

Data request, read-out IC50, for COc1ccc(OC)c(-n2c3c(cc(-c4cn(-c5ccc(Cl)cc5)cn4)c2=O)C(=O)CC(C)(C)C3)c1
5000 to 20000 nM

// IC50 lookup, key: CCc1cccc(CC)c1-n1c(CC(C)C)c(C(=O)N2CCNCC2)cc(-c2nc(-c3ccc(OC(C)C)cc3)c(C)s2)c1=O
< 300 nM

IC50 lookup needed for CC1(C)CC(=O)c2cc(-c3nc(-c4ccc(Cl)cc4)cs3)c(=O)n(-c3ccccc3N)c2C1 , thanks.
1000 to 5000 nM

The origin of these recorded values is patent US10703746B2.
